experiment: qHTS of pediatric cancer cell lines to identify multiple opportunities for drug repurposing: Primary screen for A673 cells (AID 1347092); conditions: A673 Ewing sarcoma viability, CellTiter-Glo ATP luminescence, 48 h; series mostly up to 46 µM; also: nearly all actives have a fitted effect of over 45% in size
Inconclusive results are not listed. Active and inactive are the calls of the source. Calls follow the shape of the dose curve; as a rule, active = well fitted cell-killing curve with a large enough effect; inconclusive = small, poorly fitted or top-dose-only effect; inactive = no such curve, though single readings can be large or run the other way.
Classes used: active, inactive

{"columns": ["MOLECULE", "LABEL"],
 "data": [
  ["CC(C)N(CC[C@H](c1ccccc1)c1cc(CO)ccc1O)C(C)C", "inactive"],
  ["c1cc(N[C@@H]2CCNC2)nc(-c2cnc3ccc(-c4cn[nH]c4)cn23)c1", "active"],
  ["NS(=O)(=O)OC[C@@H]1C[C@@H](n2ccc3c(N[C@H]4CCc5ccccc54)ncnc32)C[C@H]1O", "active"],
  ["Nc1ncn([C@@H]2O[C@H](CO)[C@@H](O)[C@@H]2O)c(=O)n1", "active"],
  ["C=CC(=O)Nc1cc(NC(=O)c2ccc(C)c(NC(=O)c3ccno3)c2)cc(C(F)(F)F)c1", "active"],
  ["COc1cc([C@@H]2c3cc4c(cc3[C@@H](O[C@@H]3O[C@@H]5CO[C@@H](c6cccs6)O[C@@H]5[C@H](O)[C@@H]3O)[C@H]3COC(=O)[C@H]23)OCO4)cc(OC)c1O", "active"],
  ["C[C@@H]1[C@H](C)CC[C@]2(C(=O)O)CC[C@]3(C)C(=CC[C@@H]4[C@@]5(C)C[C@@H](O)[C@H](O)[C@@](C)(CO)[C@H]5CC[C@]43C)[C@@H]12", "inactive"],
  ["O=C(O)[C@H](CC(=O)N1C[C@@H]2CCCC[C@H]2C1)Cc1ccccc1", "inactive"],
  ["Cc1noc(-c2ccc(CSCCC(=O)O)cc2)c1NC(=O)OC(C)c1ccccc1Cl (configuration not stated)", "inactive"],
  ["Cn1cc(C2=C(c3c4n(c5ccccc35)CCC(CN)C4)C(=O)NC2=O)c2ccccc21 (configuration not stated)", "active"],
  ["N#CC(=C(O)c1ccc(Cl)cc1Cl)c1nc2cc(Cl)ccc2c(=O)[nH]1", "inactive"],
  ["CC(C)C[C@H](NC(=O)CNC(=O)c1cc(Cl)ccc1Cl)B1OC(=O)CC(CC(=O)O)(C(=O)O)O1 (some centres not stated)", "active"],
  ["COc1cccc2c1C(=O)c1c(O)c3c(c(O)c1C2=O)C[C@@](O)(C(C)=O)C[C@H]3O[C@H]1C[C@H](N)[C@H](O)[C@H](C)O1", "active"],
  ["CC(C)Oc1ccc(C(=O)N[C@H](CNC(=O)CN(C)C)Cc2ccc(-c3cn4cccc([C@H](C)O)c4n3)cc2)cc1Cl", "active"],
  ["Cc1cncc2cccc(S(=O)(=O)N3CCCN(C(=O)CN)C[C@@H]3C)c12", "active"],
  ["N#CNC(=NCCCCCCOc1ccc(Cl)cc1)Nc1ccncc1", "active"],
  ["CN1[C@H]2CC(OC(=O)[C@@H](CO)c3ccccc3)C[C@H]1[C@H]1O[C@H]12 (some centres not stated)", "inactive"]
]}

###

test: qHTS Screen of the MIPE 4.0 Collection Against Ewings Sarcoma (EW8) (AID 1259255); details: EW8 Ewing sarcoma viability, CellTiter-Glo, 48 h; series mostly up to 45.8 µM; also: nearly all actives have a fitted effect of over 35% in size;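 as to viability: 100% = DMSO-treated cells and 0% = medium-only wells without cells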
Inconclusive results are not listed. Calls of active or inactive are those of the source. The call rests on the fitted dose curve; in most records, active means well fitted inhibition curve with a large enough effect; inconclusive means small, poorly fitted or top-dose-only effect; inactive means no such curve, though single readings can be large or run the other way.
Possible outcomes: active, inactive

{"columns": ["COMPOUND", "LABEL"],
 "data": [
  ["CC(=O)SCC(Cc1ccccc1)C(=O)NCC(=O)OCc1ccccc1 (centres undefined)", "active"],
  ["COc1ccc(Nc2nccc(NCCO)n2)cc1", "inactive"],
  ["Cc1cc(C(=O)NOCCO)c(Nc2ccc(I)cc2F)n(C)c1=O", "inactive"],
  ["C=C(C)[C@@H]1CC[C@]2(C(=O)O)CC[C@]3(C)[C@H](CC[C@@H]4[C@@]5(C)CC[C@H](O)C(C)(C)[C@@H]5CC[C@]43C)[C@@H]12", "inactive"],
  ["CCCCCCCCCCCCCCCC(=O)OC[C@@H](NC(=O)C(Cl)Cl)[C@H](O)c1ccc([N+](=O)[O-])cc1", "inactive"],
  ["O=C(Nc1cccc(Nc2ncc(Br)c(NCCc3cnc[nH]3)n2)c1)N1CCCC1", "active"],
  ["Oc1ccc(-c2ccc(-c3cc(Nc4cccc(CNC5CC5)c4)n[nH]3)cc2)c(O)c1", "active"],
  ["Nc1nc(N)c2nc(-c3cccc(O)c3)c(-c3cccc(O)c3)nc2n1", "active"],
  ["Cc1ncc(-c2ccnc(Nc3ccc(S(C)(=O)=O)cc3)n2)n1C(C)C", "active"]
]}

###

experiment: qHTS of pediatric cancer cell lines to identify multiple opportunities for drug repurposing: Confirmatory screen for A673 cells (AID 1347110); settings: A673 Ewing sarcoma cell viability; series mostly up to 45.9 µM;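 also: cells exposed to compound for 48 h before the viability read; nearly all actives have a fitted effect of over 65% in size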
Records with an inconclusive call do not appear. The source made the active and inactive calls. The call rests on the fitted dose curve; in most records, active means well fitted cell-killing curve with a large enough effect; inconclusive means small, poorly fitted or top-dose-only effect; inactive means flat fitted curve, though single readings scatter.
Possible outcomes: active, inactive

{"columns": ["COMPOUND", "LABEL"],
 "data": [
  ["O=C1NC(=O)[C@@H](c2cn3c4c(cccc24)CCC3)[C@H]1c1c[nH]c2ccccc12", "active"],
  ["C=CC(=O)Nc1cccc(Nc2nc(NC3CCC(N(C)C)CC3)nc3c2ncn3C(C)C)c1 (centres undefined)", "active"],
  ["COc1ccc(C(C)=O)c(O)c1", "inactive"],
  ["O=C(C=Cc1ccc(CN(CCO)CCc2c[nH]c3ccccc23)cc1)NO", "active"],
  ["CN[C@@H]1C[C@H]2O[C@@](C)([C@H]1OC)n1c3ccccc3c3c4c(c5c6ccccc6n2c5c31)C(=O)N[C@H]4O", "active"],
  ["O=C(NCc1ccccc1)[C@H](Cc1ccccc1)NC(=O)[C@@H]1O[C@@H]1C(=O)NCCc1ccc(O)cc1", "active"],
  ["CN[C@H]1[C@@H](O)[C@@H]2O[C@@H]3O[C@H](C)CC(=O)[C@]3(O)O[C@@H]2[C@@H](NC)[C@H]1O", "inactive"],
  ["O=C(C=CC#Cc1cccc(NS(=O)(=O)c2ccccc2)c1)NO", "active"],
  ["CC(=O)SCC(Cc1ccccc1)C(=O)NCC(=O)OCc1ccccc1 (centres undefined)", "inactive"]
]}

###

assay: Quantitative High-Throughput drug screen in 47 multiple myeloma cell lines against the NCATS MIPE library collection: OCIMY7_PLB cell viability assay (AID 1918987); conditions: OCI-MY7 myeloma viability, CellTiter-Glo ATP, 48 h; also: nearly all actives have a fitted effect of over 65% in size
Results filed as inconclusive are left out. Activity calls are given as the source filed them. The call rests on the fitted dose curve; in most records, active means well fitted cell-killing curve with a large enough effect; inconclusive means small, poorly fitted or top-dose-only effect, or effect the other way; inactive means no such curve, though single readings can be large or run the other way.
Classes used: class 1 = active, class 0 = inactive

{"columns": ["SMILES_STRING", "LABEL"],
 "data": [
  ["O=C1NCCc2[nH]c(-c3ccncc3)cc21", "class 1"],
  ["O=C1NC(=O)[C@@H](c2cn3c4c(cccc24)CCC3)[C@H]1c1c[nH]c2ccccc12", "class 1"],
  ["C[C@H](NCc1ccc(OCc2cccc(F)c2)cc1)C(N)=O", "class 1"],
  ["NC(=O)c1cccc(-c2cccc(OC(=O)NC3CCCCC3)c2)c1", "class 0"],
  ["O=C(NCc1ccccc1)[C@H](Cc1ccccc1)NC(=O)[C@@H]1O[C@@H]1C(=O)NCCc1ccc(O)cc1", "class 0"]
]}

###

assay: qHTS of pediatric cancer cell lines to identify multiple opportunities for drug repurposing: Primary screen for NB1643 cells (AID 1347099); conditions: NB1643 neuroblastoma viability, CellTiter-Glo luminescence, 48 h; series mostly up to 46 µM; also: nearly all actives have a fitted effect of over 50% in size; also: potency is read from the fitted curve at half-maximal effect
Results filed as inconclusive are left out. The source made the active and inactive calls. Calls come from the whole dose curve; as a rule, active = well fitted cell-killing curve with a large enough effect; inconclusive = small, poorly fitted or top-dose-only effect; inactive = no such curve, though single readings can be large or run the other way.

{"columns": ["COMPOUND", "Potency"],
 "data": [
  ["N#CC(=C(O)c1ccc(Cl)cc1Cl)c1nc2cc(Cl)ccc2c(=O)[nH]1", "20.9 µM (active)"],
  ["Nc1ccn(C[C@@H](CO)OCP(=O)(O)O)c(=O)n1", "inactive"],
  ["C[C@@H]1[C@H](C)CC[C@]2(C(=O)O)CC[C@]3(C)C(=CC[C@@H]4[C@@]5(C)C[C@@H](O)[C@H](O)[C@@](C)(CO)[C@H]5CC[C@]43C)[C@@H]12", "inactive"],
  ["O=C1NC(O)CCN1[C@@H]1O[C@H](CO)[C@H](O)[C@H]1O (stereo partly drawn)", "inactive"],
  ["COc1ccc(Nc2cc(-c3cnc(N)nc3)nc(N3CCOCC3)n2)cn1", "2.96 µM (active)"],
  ["O=c1ccn([C@@H]2O[C@H](CO)[C@H](O)[C@@H]2F)c(=O)[nH]1", "inactive"],
  ["CC(C)[C@H](CO)Nc1nc(Nc2cccc(Cl)c2)c2ncn(C(C)C)c2n1", "2.96 µM (active)"],
  ["C[C@@]12C[C@@]3(O)O[C@@H](O1)[C@]1(COC(=O)c4ccccc4)[C@@H]3C[C@@]12O[C@@H]1O[C@H](CO)[C@@H](O)[C@H](O)[C@@H]1O", "inactive"],
  ["COc1cc(C)c(Sc2cnc(NC(=O)c3ccc(CNC(C)C(C)(C)C)cc3)s2)cc1C(=O)N1CCN(C(C)=O)CC1 (stereo not drawn)", "3.72 µM (active)"],
  ["Cc1ccc2nc(NCCN)c3ncc(C)n3c2c1", "5.9 µM (active)"],
  ["OC[C@H]1OC(O)C[C@@H](O)[C@H]1O (stereo partly drawn)", "inactive"],
  ["CC(C)c1cc(C(C)C)c(CC(=O)NS(=O)(=O)Oc2c(C(C)C)cccc2C(C)C)c(C(C)C)c1", "16.6 µM (active)"],
  ["C=CCNC1=C2C[C@@H](C)C[C@H](OC)[C@@H](O)[C@@H](C)C=C(C)[C@H](OC(N)=O)[C@@H](OC)C=CC=C(C)C(=O)NC(=CC1=O)C2=O", "1.48 µM (active)"],
  ["OCc1ccccc1O[C@@H]1O[C@H](CO)[C@H](O)[C@H](O)[C@H]1O", "inactive"],
  ["COc1ccc(CCC(=O)c2c(O)cc(O[C@@H]3O[C@H](CO)[C@@H](O)[C@H](O)[C@@H]3O[C@@H]3O[C@@H](C)[C@H](O)[C@@H](O)[C@@H]3O)cc2O)cc1O", "13.2 µM (active)"],
  ["CN1CCc2c(c3ccccc3n2Cc2ccc(C(=O)NO)cc2)C1", "16.6 µM (active)"],
  ["OC[C@@H](O)[C@@H](O)[C@H](O)[C@@H](O)CO", "inactive"],
  ["NC(=O)c1ncn([C@@H]2O[C@H](CO)[C@@H](O)[C@@H]2O)c1N", "inactive"]
]}
